Target or test system: T1, HLA-DP402 molecule (DPB1*0402) (human, UniProt P20036 29-222, limits assumed)
T1 construct: HLA class II heterodimer; also called DP*0402
Assay text: competitive ELISA, tracer Oxy 271-287
As shown below, each of these binders has a reported IC50 value.

>  <Binder>
QPFLKDHRISTFKNW (synthetic 15-mer) [survivin peptide 11-25]

>  <Measure unit>
nM

>  <IC50>
25000

$$$$
>  <Binder>
HRISTFKNWPFLEGC (synthetic 15-mer) [survivin peptide 17-31]

>  <Measure unit>
nM

>  <IC50>
29

$$$$
>  <Binder>
PDLAQCFFCFKELEG (synthetic 15-mer) [survivin peptide 52-66]

>  <Measure unit>
nM

>  <IC50>
4580

$$$$
>  <Binder>
FEELTLGEFLKLDRE (synthetic 15-mer) [survivin peptide 93-107]

>  <Measure unit>
nM

>  <IC50>
67

$$$$
